# System: KM12 colon
# experimental_details: NCI tumour cell line growth inhibition, 48 h; in the data active = GI50 below about 0.43 µM; inactive = the rest
Your response should consist of one outcome taken from true (1) for active, false (0) for inactive

Exam item: Would you mind telling me which call this test gave `CNc1ccccc1C(=O)N/N=C/C=C/c1ccccc1` ?
Marked response: false (0)

Exam item: Would you mind telling me which call this test gave `O=C(/C=C/c1ccco1)c1ccc(Nc2nc(Nc3ccc(F)cc3)nc(Nc3ccc(Cl)cc3)n2)cc1` ?
Marked response: false (0)

Exam item: Would you mind telling me which call this test gave `O=[N+]([O-])c1ccc(N2CCN(Cc3ccccc3)CC2)c2c1no[n+]2[O-]` ?
Marked response: false (0)

Exam item: Would you mind telling me which call this test gave `CC(C)(C)[OH+][O-].[O-]c1ccc(Cl)cc1C=Nc1ccc(Cl)cc1[O-].[O]=[V]` ?
Marked response: false (0)

Exam item: Would you mind telling me which call this test gave `Nc1c(C(=O)Nc2ccccc2)sc2nc3c(cc12)CCCCCC3` ?
Marked response: true (1)

Exam item: Would you mind telling me which call this test gave O=C(CCN1CCN(c2cccc(Cl)c2)CC1)N1CCc2c([nH]c3ccccc23)C1c1cccnc1 (centres undefined) ?
Marked response: false (0)

Exam item: Would you mind telling me which call this test gave `C=C1C(=O)O[C@H]2[C@H]1CC/C(COC(=O)C(=O)c1c[nH]c3ccccc13)=C\CC[C@@]1(C)O[C@@H]21` ?
Marked response: false (0)

Exam item: Would you mind telling me which call this test gave `CCNC(=O)C[C@@H]1N=C(c2ccc(Cl)cc2)c2cc(OC)ccc2-n2c(C)nnc21` ?
Marked response: false (0)

Exam item: Would you mind telling me which call this test gave `COc1cccc(-c2nn(-c3ccccc3)cc2-c2ccnc(NCCNS(=O)(=O)c3ccc(Cl)cc3)c2)c1` ?
Marked response: false (0)
